Test system: CCRF-CEM
Assay: NCI tumour cell line growth inhibition, 48 h
Activity calls are given as the source filed them. Rule as the data show it: active = GI50 up to about 1.1 µM and inactive = higher. Where a SMILES comes first, the peptide text is derived from it. Bridges are numbered along the chain shown (N, C = ends). The star is where a group is joined. Cbz = O=C(OCc1ccccc1)*
Outcome codes: active, inactive

molecule	test-system	label-value
N=C(N)N/N=C(/CC1OC(=O)c2ccccc21)c1ccc2ccccc2c1 (configuration not stated)	CCRF-CEM	inactive
CC(O)C1(CNc2cc(Cl)nc(N)n2)CC(CCc2ccccc2)C1 (configuration not stated)	CCRF-CEM	inactive
C=C(C)C1CCC2(CO)C(O)CC3(C)C(CCC4C5(C)CCC(O)C(C)(C)C5CCC43C)C12 (configuration not stated)	CCRF-CEM	inactive
COC(=O)C1CCCCNC(=O)CCC(NC(=O)OCc2ccccc2)C(=O)N1 (stereo not drawn) (Cbz-Glu-Lys-OMe; lactam 1-2; configuration not given here)	CCRF-CEM	inactive
CCCCCCC(=O)C/C(CCC(=O)N(Cc1ccccc1)Cc1ccccc1)=N\Nc1ccc([N+](=O)[O-])cc1[N+](=O)[O-]	CCRF-CEM	inactive
C[C@H](CCc1nc(C#N)c(N)o1)[C@H]1CC[C@H]2[C@@H]3[C@@H](O)CC4C[C@@H](O)CC[C@]4(C)[C@H]3C[C@@H](O)[C@]12C (some centres not stated)	CCRF-CEM	active
O=[N+]([O-])/C=C/c1ccc2ccccc2c1	CCRF-CEM	inactive
COc1cc(CNC(=S)CCCCCCCCCCC(C)C)ccc1O	CCRF-CEM	inactive
COC(=O)C12CCCN1CCC2	CCRF-CEM	inactive
CCCC(=O)NC1CCc2cc(OC)c(OC)c(OC)c2-c2ccc(OC)c(=O)cc21 (configuration not stated)	CCRF-CEM	active
C#C[C@]1(O)CC[C@H]2[C@@H]3CCC4=C/C(=N/OC(=O)c5cccc6cc7ccccc7nc56)CC[C@@H]4[C@H]3CC[C@@]21CC	CCRF-CEM	inactive
Cc1ccc(S(=O)(=O)N/N=C(\c2nc3ccc(Cl)cc3nc2O)C(O)c2cccc([N+](=O)[O-])c2)cc1 (configuration not stated)	CCRF-CEM	inactive
CC[C@@H](C(=O)[C@@H](C)[C@@H](O)[C@H](C)CCc1ccc(C)c(O)c1C(=O)O)[C@H]1O[C@](CC)([C@H]2CC[C@](O)(CC)[C@H](C)O2)C[C@@H]1C [LASALOCID A SODIUM]	CCRF-CEM	active
N/N=C1\C(=O)N(CCc2ccccc2)C(=O)C1C(=O)NCCc1ccccc1 (configuration not stated)	CCRF-CEM	inactive
Cc1ccc(Nc2nc(=O)[nH]c(=O)[nH]2)cc1N	CCRF-CEM	inactive
O=C1CCC(=O)N1CNc1ccc2c(c1)Sc1ccccc1O2	CCRF-CEM	inactive
CCCCCCCCCCCC(=O)c1c(O)cccc1O	CCRF-CEM	inactive
